# Measurement description: nonspecific calcium rise without TRPC4 – cell-based, HEK293 mu-opioid receptor line, counter-screen for TRPC4 activator project, confirmation (AID 449723);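 also: counter screen cells carry the mu-opioid receptor alone and lack TRPC4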
# Condition context: HEK293 mu-opioid cells, Fluo-4 calcium fluorescence, at 10 µM
Active and inactive are the calls of the source.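 The calls were made as follows: active = hit in primary screen, with calcium signal over 5 SD above buffer well mean in both duplicates; inactive = the rest.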
Entry note: the call must match one of true (1) for active, false (0) for inactive

Cc1ccc(/C=C/C(=O)NC2CCCCCCC2)o1 : false (0)
CCCn1c(=O)c2ccccc2n2c(SCCOc3ccccc3)nnc12 : false (0)
CCCc1c(-c2ccc(O)cc2)nn(-c2ccc(O)cc2)c1-c1ccc(O)cc1 : false (0)
N=c1c(C(=O)NCC2CCCO2)cc2c(=O)n3ccccc3nc2n1Cc1ccccc1Cl (stereo not drawn) : false (0)
CCOc1ccccc1N(CC(=O)N1CCOCC1)S(=O)(=O)c1ccc(SC)cc1 : true (1)
CCOc1ccc(Br)cc1/C=N/O : false (0)
CCOc1ccc(CCNC(=O)c2ccc3c(=O)[nH]c4c(C(=O)NC(C)C)sc(=S)n4c3c2)cc1 : false (0)
CCOC(=O)CSc1nc2ccccc2c(=O)n1CC1CCCC1 : false (0)
COc1c2c(cc3c1C(CC(O)Cc1ccccc1)N(C)CC3)OCO2 (stereo not drawn) : false (0)
CCCn1c(=N)n(CC(=O)C(C)(C)C)c2ccccc21 : false (0)

Q: Field: outcome | Entry: COc1ccc2nc(NCc3ccccc3)[nH]c2c1
A: false (0)

Q: Field: outcome | Entry: Cc1ccc(Cn2c(=N)c(C(=O)NC3CCCCC3)cc3c(=O)n4ccccc4nc32)cc1
A: false (0)

Q: Field: outcome | Entry: Clc1ccc2nc(N3CCNCC3)nc(-c3ccccc3)c2c1
A: true (1)

Q: Field: outcome | Entry: COc1c(C)cc(C(=O)C2CCCN(Cc3cccc4nccnc34)C2)cc1C (stereo not drawn)
A: false (0)

Q: Field: outcome | Entry: COc1ccc(C(CNC(=O)c2oc3ccc(F)cc3c2C)N2CCCCC2)cc1 (stereo not drawn)
A: false (0)
